Collected CC50 values appear next to each entry.
test system: CCRF-CEM; assay: Cytotoxicity against human CEM cells; format: functional

Sample records with CC50:
>  <Structure Smiles String>
CC(C)Oc1ccc2c(c1)C(=O)C(C1=C(O)C(=O)c3c(ccc4c3C=CC(C)(C)O4)C1=O)=C(C1=C(O)C(=O)c3c(ccc4c3C=CC(C)(C)O4)C1=O)C2=O

>  <CC50>
> 20 µM

$$$$
>  <Structure Smiles String>
CC1(C)C=Cc2c(ccc3c2C(=O)C(O)=C(C2=C(C4=C(O)C(=O)c5c(ccc6c5C=CC(C)(C)O6)C4=O)C(=O)c4ccccc4C2=O)C3=O)O1

>  <CC50>
10 µM

$$$$

Task: Look up and state reported CC50 for CC1(C)C=Cc2c(ccc3c2C(=O)C(O)=C(C2=C(C4=C(O)C(=O)c5c(ccc6c5C=CC(C)(C)O6)C4=O)C(=O)c4c(ccc5c4C=CC(C)(C)O5)C2=O)C3=O)O1
Output: > 20 µM

Task: Please give the documented CC50 of CC1(C)C=Cc2c(ccc3c2C(=O)C(O)=C(C2=C(C4=C(O)C(=O)c5c(ccc6c5C=CC(C)(C)O6)C4=O)C(=O)c4c(ccc5c4CCC(C)(C)O5)C2=O)C3=O)O1
Output: > 20 µM

====

test: Tmax in rat at 5 mg/kg, po and 2 mg/kg, iv; details: in vivo
Value Kind: Tmax (h)
Number only, in h; omit the unit.

Task: Return Tmax (reported value) for this compound: CC1(C)C=Cc2c(ccc3c2C(=O)C(O)=C(C2=C(C4=C(O)C(=O)c5c(ccc6c5C=CC(C)(C)O6)C4=O)C(=O)c4c(ccc5c4CCC(C)(C)O5)C2=O)C3=O)O1
Output: 7.5

====

target: Human immunodeficiency virus type 1 integrase (Human immunodeficiency virus 1, UniProt Q7ZJM1); assay: Inhibition of HIV1 integrase 3' processing activity
Sequence (Q7ZJM1 whole entry): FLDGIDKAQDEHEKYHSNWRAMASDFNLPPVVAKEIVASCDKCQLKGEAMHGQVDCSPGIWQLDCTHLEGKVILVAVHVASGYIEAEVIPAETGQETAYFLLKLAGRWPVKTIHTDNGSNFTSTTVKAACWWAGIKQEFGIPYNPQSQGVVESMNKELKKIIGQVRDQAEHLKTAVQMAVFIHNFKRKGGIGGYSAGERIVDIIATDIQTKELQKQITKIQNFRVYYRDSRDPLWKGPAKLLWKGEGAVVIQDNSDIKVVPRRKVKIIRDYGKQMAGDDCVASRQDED
Threshold 2000 nM: IC50 strictly smaller gives rule met, otherwise rule not met.

Below, 5 compounds whose answers are already recorded.
>  <Structure Smiles String>
CCCOc1ccc2c(c1)C(=O)C(C1=C(O)C(=O)c3c(ccc4c3C=CC(C)(C)O4)C1=O)=C(C1=C(O)C(=O)c3c(ccc4c3C=CC(C)(C)O4)C1=O)C2=O

>  <Group Label>
rule not met

$$$$
>  <Structure Smiles String>
CC1(C)C=Cc2c(ccc3c2C(=O)C(O)=C(C2=C(C4=C(O)C(=O)c5c(ccc6c5C=CC(C)(C)O6)C4=O)C(=O)c4c(ccc5c4C=CC(C)(C)O5)C2=O)C3=O)O1

>  <Group Label>
rule met

$$$$
>  <Structure Smiles String>
COc1cc2c(cc1OC)C(=O)C(C1=C(C3=C(O)C(=O)c4cc(OC)c(OC)cc4C3=O)C(=O)c3cc(OC)c(OC)cc3C1=O)=C(O)C2=O

>  <Group Label>
rule not met

$$$$
>  <Structure Smiles String>
CC1(C)C=Cc2c(ccc3c2C(=O)C(O)=C(C2=C(C4=C(O)C(=O)c5c(ccc6c5C=CC(C)(C)O6)C4=O)C(=O)c4ccccc4C2=O)C3=O)O1

>  <Group Label>
rule not met

$$$$
>  <Structure Smiles String>
COc1ccc2c(c1)C(=O)C(C1=C(O)C(=O)c3c(ccc4c3C=CC(C)(C)O4)C1=O)=C(C1=C(O)C(=O)c3c(ccc4c3C=CC(C)(C)O4)C1=O)C2=O

>  <Group Label>
rule not met

$$$$

// next entry
Task: For this compound, is IC50 lower than 2000 nM? O=C1C(O)=C(C2=C(C3=C(O)C(=O)c4ccccc4C3=O)C(=O)c3ccccc3C2=O)C(=O)c2ccccc21
Output: rule not met
